- Experimental target: Prostaglandin G/H synthase 2 (Homo sapiens, UniProt P35354)
- Sequence (P35354 whole entry, looked up): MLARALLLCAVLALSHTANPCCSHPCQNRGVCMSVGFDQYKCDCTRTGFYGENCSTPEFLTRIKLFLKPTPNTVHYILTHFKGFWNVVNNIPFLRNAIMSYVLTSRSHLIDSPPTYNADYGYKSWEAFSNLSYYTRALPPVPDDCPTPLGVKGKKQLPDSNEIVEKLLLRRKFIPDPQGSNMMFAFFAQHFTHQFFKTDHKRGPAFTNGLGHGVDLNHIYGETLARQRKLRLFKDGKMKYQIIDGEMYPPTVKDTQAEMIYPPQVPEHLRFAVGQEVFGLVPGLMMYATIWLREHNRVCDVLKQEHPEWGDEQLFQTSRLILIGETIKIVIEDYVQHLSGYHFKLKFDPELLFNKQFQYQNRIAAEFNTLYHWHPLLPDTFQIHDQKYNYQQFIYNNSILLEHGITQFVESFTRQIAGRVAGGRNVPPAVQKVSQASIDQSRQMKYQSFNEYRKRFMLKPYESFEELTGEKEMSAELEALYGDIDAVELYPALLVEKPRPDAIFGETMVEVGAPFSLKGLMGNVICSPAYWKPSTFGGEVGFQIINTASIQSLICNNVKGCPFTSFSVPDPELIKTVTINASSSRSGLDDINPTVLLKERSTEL
- Test: Inhibition of human recombinant COX2 pre-incubated for 15 mins before arachidonic acid addition by fluorescence micro plate reader method
Entries and their measured IC50 follow.
Response body: numeric value in µM, unit text excluded.

Example entries and their recorded answers appear below.
compound=CC(=O)NCCc1ccc(O)c(O)c1 measured_number=18.9
compound=CC(=O)/C=C/c1ccc(O)c(O)c1 measured_number=22.2
compound=CC(=O)NC[C@@H](OC[C@H](O)CO)c1ccc(O)c(O)c1 measured_number=117

## Input Please give the measured IC50 for this compound: CC(=O)N/C=C\c1ccc2c(c1)OC(c1ccc(O)c(O)c1)C(NC(C)=O)O2 (centres undefined)
## Output 6.5
